- TARGET OF ASSAY: HNMT (Homo sapiens)
- ASSAY EXPLANATION: MTase-Glo HNMT inhibition assay
- Assay type: biochemical
- MEASUREMENT PARAMETERS: read-out: IC50, MTase Glo assay
MEASUREMENT LABEL: IC50 (nM)

* c1cncc(Nc2cc3c(cn2)CN(Cc2ccsc2)CCN3)c1 [NCGC00411044] | 2450

====

- TARGET OF ASSAY: HNMT (Homo sapiens, UniProt P50135)
- Sequence (P50135 whole entry): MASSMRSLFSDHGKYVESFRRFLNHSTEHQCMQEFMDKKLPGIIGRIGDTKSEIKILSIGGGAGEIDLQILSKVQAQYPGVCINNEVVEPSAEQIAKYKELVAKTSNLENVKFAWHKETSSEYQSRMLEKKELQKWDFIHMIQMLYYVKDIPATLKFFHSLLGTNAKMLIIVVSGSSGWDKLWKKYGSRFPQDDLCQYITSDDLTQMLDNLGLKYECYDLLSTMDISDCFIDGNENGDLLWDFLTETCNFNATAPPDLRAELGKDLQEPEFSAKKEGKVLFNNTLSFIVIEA
- ASSAY EXPLANATION: LC-MS orthogonal assay, HNMT
- Format: biochemical
- MEASUREMENT PARAMETERS: read-out: IC50, MS assay, LC-MS readout of SAH, n=3
pIC50: −log10 of the molar value.
MEASUREMENT LABEL: pIC50

* c1cncc(Nc2cc3c(cn2)CN(Cc2ccsc2)CCN3)c1 | 6.17
